- TEST TARGET: Mitogen-activated protein kinase 1 (Mus musculus, UniProt P63085)
- Sequence (P63085 whole entry): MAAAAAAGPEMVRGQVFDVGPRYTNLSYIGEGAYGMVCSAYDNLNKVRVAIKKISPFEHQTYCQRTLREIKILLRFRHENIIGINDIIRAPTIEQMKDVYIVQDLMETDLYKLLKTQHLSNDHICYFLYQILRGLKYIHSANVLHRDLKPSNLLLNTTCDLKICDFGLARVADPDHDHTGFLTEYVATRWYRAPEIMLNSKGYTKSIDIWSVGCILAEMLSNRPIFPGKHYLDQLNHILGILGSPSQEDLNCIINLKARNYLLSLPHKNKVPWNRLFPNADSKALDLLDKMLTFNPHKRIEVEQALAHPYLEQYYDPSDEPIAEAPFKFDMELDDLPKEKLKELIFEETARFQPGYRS
- PROTOCOL: IMAP Assay : Condition 1: Activated ERK2 activity was also determined in the IMAP assay format using the procedure outlined above. 1 μl of 25× compound was added to […] of kinase buffer containing 0.25 ng fully phosphorylated, active Mouse ERK2 protein. Following a 30 minute incubation, the reactions were initiated by addition of 10 μl of kinase buffer containing 1 μM ERK2 IMAP substrate peptide (0.9 μM unlabeled […]-CONH2 and 100 nM […](5-carboxyfluorescein)-CONH2) and 30 μM ATP. Reactions proceeded for 30 minutes before termination by addition of 60 μl IMAP detection beads in binding buffer. Plates were read as above after 30 minute binding equilibration. Active compounds were reconfirmed in an independent assay.
MEASURE: pIC50
Reminder that pIC50 is minus the log10 of a molar concentration.

Which pIC50 is listed for COc1cccc(F)c1CN1C[C@H](NC(=O)c2ccc3[nH]nc(-c4ccncc4)c3c2)CC[C@H]1C(=O)N1CCC(F)(F)CC1 ?
7.46
